Tested target: p97 (Homo sapiens (Human), UniProt P55072)
Sequence (P55072 whole entry): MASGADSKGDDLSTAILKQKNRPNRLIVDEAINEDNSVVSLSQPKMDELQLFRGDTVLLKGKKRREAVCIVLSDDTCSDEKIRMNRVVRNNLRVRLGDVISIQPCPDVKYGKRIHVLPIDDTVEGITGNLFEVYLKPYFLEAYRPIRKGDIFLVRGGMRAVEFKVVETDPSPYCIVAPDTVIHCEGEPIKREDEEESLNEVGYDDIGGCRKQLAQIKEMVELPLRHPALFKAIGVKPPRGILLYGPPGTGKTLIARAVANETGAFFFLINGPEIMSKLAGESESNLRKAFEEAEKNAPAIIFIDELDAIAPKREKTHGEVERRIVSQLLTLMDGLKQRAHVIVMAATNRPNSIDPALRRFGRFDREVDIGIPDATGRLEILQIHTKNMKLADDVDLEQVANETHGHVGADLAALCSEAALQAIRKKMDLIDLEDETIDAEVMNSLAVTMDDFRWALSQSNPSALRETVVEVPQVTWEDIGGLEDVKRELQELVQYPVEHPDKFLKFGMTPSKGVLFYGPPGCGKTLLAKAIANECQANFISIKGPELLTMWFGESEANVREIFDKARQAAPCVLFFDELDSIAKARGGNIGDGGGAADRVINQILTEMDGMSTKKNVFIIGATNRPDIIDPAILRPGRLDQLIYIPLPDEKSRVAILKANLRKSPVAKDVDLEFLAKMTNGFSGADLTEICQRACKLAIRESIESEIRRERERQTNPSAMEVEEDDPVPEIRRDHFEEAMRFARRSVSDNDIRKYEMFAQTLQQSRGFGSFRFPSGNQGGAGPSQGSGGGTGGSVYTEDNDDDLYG
Measurement notes: P97 ATPase biochem assay (ADP Glo)
Assay type: biochemical
Experimental setup: 20 nM p97, 20 μM ATP, 37° C., 15 minutes; read-out: p97 biochem IC50
pIC50: −log10 of the molar value.
Measured parameter: pIC50

>>> data_value("COc1cccc2c(NCc3ccccc3)nc(Nc3ncc[nH]3)nc12")
"> 5.00"
>>> data_value("OCc1cc2ccccc2n1-c1nc2c(c(NCc3ccccc3)n1)CCCC2 [drawing 227]")
"> 5.70"
>>> data_value("COc1cc2ccccc2n1-c1nc(NCc2ccccc2)c2c(n1)C(=O)N(C(=O)OC(C)(C)C)CC2")
"> 5.70"
>>> data_value("COc1cccc2c(NCc3ccccc3)nc(-n3c(=O)[nH]c4ccccc43)nc12")
"> 5.70"
>>> data_value("COC(=O)NCc1cc2ccccc2n1-c1nc2c(c(NCc3ccccc3)n1)CCCC2 [drawing 232]")
"> 5.70"
>>> data_value("COc1nc2ccccc2n1-c1nc(NCc2ccccc2)c2c(n1)C(=O)NCC2")
"> 5.30"
>>> data_value("COc1cccc2c(NCc3ccccc3)nc(-n3ccc4ccccc43)nc12")
"> 5.70"
>>> data_value("COc1cccc2c(NCc3ccccc3)nc(-n3c(C)nc4ccccc43)nc12")
"> 5.70"
>>> data_value("COc1cccc2c(NCc3ccccc3)nc(-n3c(/C=C/S(C)(=O)=O)cc4ccccc43)nc12 [drawing 244]")
"> 5.70"
>>> data_value("CNCC(=O)N1CCc2c(nc(-n3c(CN)cc4ccccc43)nc2NCc2ccccc2)C1")
"> 5.00"

---

Reported pIC50 by item:
Tested target: p97 (Homo sapiens (Human), UniProt P55072)
Measurement notes: P97 ATPase biochem assay (ADP Glo)
Type: biochemical
Experimental setup: read-out: p97 IC50
pIC50: −log10 of the molar value.
Measured parameter: pIC50

>>> data_value("c1ccc(CNc2nc(-n3c(N4CCOCC4)nc4ccccc43)nc3c2CCCC3)cc1")
"> 6.52"
>>> data_value("COCCOc1cccc2c(NCc3ccccc3)nc(-n3c(CNC(=O)OC)cc4ccccc43)nc12")
"> 6.52"
>>> data_value("Clc1cc2ccccc2n1-c1nc2c(c(NCc3ccccc3)n1)CCCC2")
"> 7.00"
>>> data_value("CN(C)Cc1cc2ccccc2n1-c1nc2c(c(NCc3ccccc3)n1)CCCC2")
"> 6.52"
>>> data_value("COCCOc1cccc2c(NCc3ccccc3)nc(-n3c(C(C)N)cc4ccccc43)nc12 (stereo not shown)")
"> 6.52"
>>> data_value("COCCOc1cccc2c(NCc3ccccc3)nc(-n3c(OC)nc4ccccc43)nc12")
"> 6.52"
>>> data_value("c1ccc(CNc2nc(-n3c(CN4CCOCC4)cc4ccccc43)nc3c2CCCC3)cc1")
"> 6.52"
>>> data_value("COc1cccc2c(NCc3ccccc3)nc(-n3c(/C=C/C#N)cc4ccccc43)nc12")
"> 6.52"
>>> data_value("Cc1cc2c(C(N)=O)cccc2n1-c1nc2c(c(NCc3ccccc3)n1)CNCC2")
"> 7.00"
>>> data_value("Cc1cc2c(C#N)cccc2n1-c1nc2c(c(NCc3ccccc3)n1)COCC2")
"> 7.00"

---

Tested target: p97 (Homo sapiens (Human))
Measurement notes: P97 ATPase biochem assay (ADP Glo)
Assay type: biochemical
Experimental setup: 20 nM p97, 20 μM ATP, 37° C., 15 minutes; read-out: p97 biochem IC50
Listing of recorded IC50 by entry.
Measured parameter: IC50

>>> data_value("NC(=O)COc1cccc2c(NCc3ccccc3)nc(-n3c(N)nc4ccccc43)nc12")
"< 2000 nM"
>>> data_value("Cc1cc2ccccc2n1-c1nc2c(c(NCc3ccccc3)n1)CCNC2")
"< 2000 nM"
>>> data_value("CC(=O)N1CCc2c(nc(C3C(C)=Cc4ccccc43)nc2NCc2ccccc2)C1 (centres unmarked)")
"< 2000 nM"
>>> data_value("CCN1CCc2c(nc(-n3c(CN)cc4ccccc43)nc2NCc2ccccc2)C1")
"< 2000 nM"
>>> data_value("COc1cccc2c(NCc3ccccc3)nc(C3c4ccccc4CN3C)nc12 (centres unmarked)")
"< 10000 nM"
>>> data_value("Cc1cc2ccccc2n1-c1nc2c(c(NCc3ccccc3)n1)CNCC2")
"< 2000 nM"
>>> data_value("Cc1cc2ccccc2n1-c1nc(NCc2ccccc2)c2cccc(C#N)c2n1")
"< 2000 nM"
>>> data_value("NCCOc1cccc2c(NCc3ccccc3)nc(-n3c(N)nc4ccccc43)nc12")
"< 2000 nM"
>>> data_value("CS(=O)(=O)N1CCc2c(nc(-n3c(CN)cc4ccccc43)nc2NCc2ccccc2)C1")
"< 2000 nM"
>>> data_value("COc1nc2ccccc2n1-c1nc(NCc2ccccc2)c2ncsc2n1")
"< 2000 nM"
>>> data_value("CS(=O)(=O)NCc1cc2ccccc2n1-c1nc2c(c(NCc3ccccc3)n1)CCCC2 [drawing 233]")
"< 2000 nM"
>>> data_value("COc1cccc2c(NCc3ccccc3)nc(-n3c(=O)n(C)c4ccccc43)nc12")
"< 5000 nM"
>>> data_value("Cc1cc2ccccc2n1-c1nc2c(c(NCc3ccccc3)n1)COC2")
"< 2000 nM"
>>> data_value("COCc1cc2ccccc2n1-c1nc2c(c(NCc3ccccc3)n1)CCCC2")
"< 2000 nM"
>>> data_value("COc1cccc2c(NCc3ccccc3)nc(-n3c(/C=C/C#N)cc4ccccc43)nc12 [drawing 242]")
"< 2000 nM"
>>> data_value("CC(=O)N1Cc2nc(-n3c(C)cc4ccccc43)nc(NCc3ccccc3)c2C1")
"< 2000 nM"
>>> data_value("CC(N)c1cc2ccccc2n1-c1nc2c(c(NCc3ccccc3)n1)CCCC2 (centres unmarked)")
"< 2000 nM"
>>> data_value("COc1cccc2c(NCc3ccccc3)nc(-n3c(OC)nc4ccccc43)nc12")
"< 2000 nM"
>>> data_value("COc1cccc2c(NCc3ccccc3)nc(C(C)c3ccccc3)nc12 (centres unmarked)")
"< 10000 nM"
>>> data_value("COc1cccc2c(NCc3ccccc3)nc(Nc3ccccn3)nc12")
"< 10000 nM"
>>> data_value("COc1cccc2c(NCc3ccccc3)nc(-n3c(N(C)C)nc4ccccc43)nc12")
"< 2000 nM"
>>> data_value("CNCCN1CCc2c(nc(-n3c(CN)cc4ccccc43)nc2NCc2ccccc2)C1")
"< 10000 nM"
>>> data_value("COc1cccc2c(NCc3ccccc3)nc(CCc3ccccc3)nc12")
"< 25000 nM"
>>> data_value("CN(C)Cc1cccc2c(NCc3ccccc3)nc(-n3c(N)nc4ccccc43)nc12")
"< 25000 nM"
>>> data_value("COCCOc1cccc2c(NCc3ccccc3)nc(-n3c(N)nc4ccccc43)nc12")
"< 2000 nM"
>>> data_value("CC(=O)C1CCc2c(nc(-n3c(CN)cc4ccccc43)nc2NCc2ccccc2)C1 (centres unmarked)")
"< 2000 nM"
>>> data_value("COc1cccc2c(NCc3ccccc3)nc(-n3c(C)cc4ccccc43)nc12")
"< 2000 nM"
>>> data_value("COc1cccc2c(NCc3ccccc3)nc(-n3c(NC(C)=O)nc4ccccc43)nc12")
"< 5000 nM"
>>> data_value("CNc1nc2ccccc2n1-c1nc(NCc2ccccc2)c2cccc(OC)c2n1")
"< 2000 nM"
>>> data_value("COC(=O)N1CCc2c(nc(-n3c(CN)cc4ccccc43)nc2NCc2ccccc2)C1")
"< 2000 nM"
>>> data_value("COc1cccc2c(NCc3ccccc3)nc(CCC(C)C)nc12")
"< 10000 nM"
>>> data_value("Cc1cc2ccccc2n1-c1nc2c(c(NCc3ccccc3)n1)CCN(C(=O)OC(C)(C)C)C2")
"< 2000 nM"
>>> data_value("NC(=O)NCc1cc2ccccc2n1-c1nc2c(c(NCc3ccccc3)n1)CCCC2 [drawing 231]")
"< 2000 nM"
>>> data_value("COCc1cccc2c(NCc3ccccc3)nc(-n3c(N)nc4ccccc43)nc12")
"< 2000 nM"
>>> data_value("COc1cccc2c(NCc3ccccc3)nc(N(C(N)=O)c3ccccc3)nc12")
"< 5000 nM"
>>> data_value("COc1cccc2c(NCc3ccccc3)nc(-n3c(CN)nc4sccc43)nc12")
"< 2000 nM"
>>> data_value("Nc1nc2ccccc2n1-c1nc(NCc2ccccc2)c2nc[nH]c2n1")
"< 5000 nM"
>>> data_value("COc1cccc2c(NCc3ccccc3)nc(-n3c(N)nc4cccc(F)c43)nc12")
"< 10000 nM"
>>> data_value("COc1cccc2c(NCc3ccccc3)nc(-c3c(N)[nH]c4ccccc34)nc12")
"< 2000 nM"
>>> data_value("COC1=Nc2ccccc2C1c1nc(NCc2ccc(F)cc2)c2cccc(OC)c2n1 (centres unmarked)")
"< 2000 nM"
>>> data_value("Cc1cc2ccccc2n1-c1nc(NCc2ccccc2)c2cccc(CN)c2n1")
"< 2000 nM"
